quantity_name: melting point

Would you mind giving melting point for every compound in the list below?
1. CC(=O)Nc1cc(Oc2ccc3c(C(=O)Nc4ccc(CN5CCN(C)CC5)c(C(F)(F)F)c4)cccc3c2)ccn1 [Example 7]
2. Cc1cn(-c2cc(NC(=O)c3cccc4cc(Oc5ccnc(NC(=O)C(C)(C)O)c5)ccc34)cc(C(F)(F)F)c2)cn1 [Example 4]
3. Cc1cn(-c2cc(NC(=O)c3cccc4cc(Oc5cc(N)ncn5)ccc34)cc(C(F)(F)F)c2)cn1 [Example 21]
4. Cc1cn(-c2cc(NC(=O)c3cccc4cc(Oc5ccnc(Nc6ccccn6)c5)ccc34)cc(C(F)(F)F)c2)cn1 [Example 6]

["112 to 114 °C", "248 to 251 °C", "> 148 °C", "204 to 206 °C"]
